Source of measurements: patent US20260092057A1

biological target: BCL-XL (Homo sapiens, UniProt Q07817); construct: BCL-XL degradation results in MOLT-4 cells for compounds of the invention; endogenous in cells; host or cells: MOLT-4; assay: BCL-XL degradation assay in MOLT-4 cells (ELISA, 6 h); type: cell-based
Sequence (Q07817 whole entry): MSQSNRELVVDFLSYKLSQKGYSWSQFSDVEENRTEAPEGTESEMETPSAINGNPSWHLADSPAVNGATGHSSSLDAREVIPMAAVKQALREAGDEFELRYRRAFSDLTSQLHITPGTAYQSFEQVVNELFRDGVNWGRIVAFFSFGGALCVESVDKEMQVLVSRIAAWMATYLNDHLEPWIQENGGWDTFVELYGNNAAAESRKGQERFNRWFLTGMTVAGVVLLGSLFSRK

>  <compound_smiles>
Cc1ncsc1-c1ccc([C@H](C)NC(=O)[C@@H]2C[C@@H](O)CN2C(=O)[C@@H](NC(=O)CCCCCCCC(=O)Nc2ccc(-c3ccc(Cl)cc3)c(CN3CCN(c4ccc(C(=O)NS(=O)(=O)c5ccc(N[C@H](CCN(C)C)CSc6ccccc6)c([N+](=O)[O-])c5)cc4)CC3)c2)C(C)(C)C)cc1

>  <target>
BCL-XL (Homo sapiens, UniProt Q07817)

>  <Dmax>
50 to 75%

$$$$
>  <compound_smiles>
Cc1ncsc1-c1ccc([C@H](C)NC(=O)[C@@H]2C[C@@H](O)CN2C(=O)[C@@H](NC(=O)CCCCCCC(=O)N2CCN(CCCNc3ccc(S(=O)(=O)NC(=O)c4ccc(N5CCN(CC6=C(c7ccc(Cl)cc7)CC(C)(C)CC6)CC5)cc4Oc4cnc5[nH]ccc5c4)cc3S(=O)(=O)C(F)(F)F)CC2)C(C)(C)C)cc1

>  <target>
BCL-XL (Homo sapiens, UniProt Q07817)

>  <Dmax>
> 75%

$$$$
>  <compound_smiles>
C#Cc1ccc([C@H](CO)NC(=O)[C@@H]2C[C@@H](O)CN2C(=O)[C@@H](NC(=O)CCCCCC(=O)N2CCN(CCCNc3ccc(S(=O)(=O)NC(=O)c4ccc(N5CCN(CC6=C(c7ccc(Cl)cc7)CC(C)(C)CC6)CC5)cc4Oc4cnc5[nH]ccc5c4)cc3S(=O)(=O)C(F)(F)F)CC2)C(C)(C)C)cc1

>  <target>
BCL-XL (Homo sapiens, UniProt Q07817)

>  <Dmax>
> 75%

$$$$

###

tested on: Caki-2 cells; experiment: CTG (CellTiter-Glo) cell viability assay, Caki-2; type: cell-based; settings: Homo sapiens, CAKI-2, 72 h, Caki-2, 3-day; read-out: CTG Chempartner/PHA- Caki-2 3-day: Average external-IC50
pIC50: −log10 of the molar value.

>  <compound>
Cc1ncsc1-c1ccc([C@H](C)NC(=O)[C@@H]2C[C@@H](O)CN2C(=O)[C@@H](NC(=O)CCCCC(=O)N2CCC3(CCN(Cc4ccc(-c5ccc(Cl)cc5)c(CN5CCN(c6ccc(C(=O)NS(=O)(=O)c7ccc(N[C@H](CCN(C)C)CSc8ccccc8)c([N+](=O)[O-])c7)cc6)CC5)c4)CC3)CC2)C(C)(C)C)cc1 [I-17]

>  <pIC50>
< 4.52

$$$$
>  <compound>
Cc1ncsc1-c1ccc([C@H](C)NC(=O)[C@@H]2C[C@@H](O)CN2C(=O)[C@@H](NC(=O)CCCCCC(=O)N2CCN(CC[C@H](CSc3ccccc3)Nc3ccc(S(=O)(=O)NC(=O)c4ccc(N5CC(N(C)C)C5)cc4)cc3S(=O)(=O)C(F)(F)F)CC2)C(C)(C)C)cc1 [I-49]

>  <pIC50>
< 4.52

$$$$
>  <compound>
Cc1ncsc1-c1ccc([C@H](C)NC(=O)[C@@H]2C[C@@H](O)CN2C(=O)[C@@H](NC(=O)CCCC(=O)N2CCN(CCCNc3ccc(S(=O)(=O)NC(=O)c4ccc(N5CCC([C@H](O)c6ccccc6-c6ccc(Cl)cc6)CC5)cc4Oc4cnc5[nH]ccc5c4)cc3S(=O)(=O)C(F)(F)F)CC2)C(C)(C)C)cc1 (single isomer, unassigned) [I-60]

>  <pIC50>
< 4.52

$$$$
